Data origin: patent US11059853B2

test: Pharmacokinetics in mice administrated with single compound; assay type: in vivo, mice (C57BL/6J); conditions: mouse, plasma; male C57BL/6J mice, oral (intragastrical) 10 mg/kg
observed.property: Tmax (min)
Field: numeric (min). Do not append units.

compound	unit	Tmax
CC[C@H]1[C@@H](O)[C@@H]2[C@H](CC[C@]3(C)[C@@H]([C@H](C)CCC(=O)O)CC[C@@H]23)[C@@]2(C)CC[C@@H](O)C[C@@H]12 [Obeticholic acid, reference compound]	min	18

Form field Tmax, entry `CC[C@H]1[C@@H](O)[C@@H]2[C@H](CC[C@]3(C)[C@@H]([C@H](C)CCOc4ncc(C(=O)O)cc4Cl)CC[C@@H]23)[C@@]2(C)CC[C@@H](O)C[C@@H]12` : 30

----------
assay: Pharmacokinetics in mice administrated with single compound; format: in vivo, mice (C57BL/6J); settings: mouse, plasma; male C57BL/6J mice, oral 10 mg/kg vs intravenous 2 mg/kg
The compounds listed here are annotated with their bioavailability.
Respond numerically; units are % and should not be typed.

compound	bioavailability / %
CC[C@H]1[C@@H](O)[C@@H]2[C@H](CC[C@]3(C)[C@@H]([C@H](C)CCC(=O)O)CC[C@@H]23)[C@@]2(C)CC[C@@H](O)C[C@@H]12 [Obeticholic acid, reference compound]	13

Let us move to another entry and its bioavailability.
For reference, reported bioavailability for `CC[C@H]1[C@@H](O)[C@@H]2[C@H](CC[C@]3(C)[C@@H]([C@H](C)CCOc4ncc(C(=O)O)cc4Cl)CC[C@@H]23)[C@@]2(C)CC[C@@H](O)C[C@@H]12` stands at 20

----------
assay: Pharmacokinetics in mice administrated with single compound; type: in vivo, mice (C57BL/6J); conditions: mouse, plasma; male C57BL/6J mice, oral (intragastrical) 10 mg/kg
observed.property: Cmax (nM)
Numbers only; they are read as nM.

compound	Cmax, nM
CC[C@H]1[C@@H](O)[C@@H]2[C@H](CC[C@]3(C)[C@@H]([C@H](C)CCOc4ncc(C(=O)O)cc4Cl)CC[C@@H]23)[C@@]2(C)CC[C@@H](O)C[C@@H]12	1780

Query compound follows.
In plain terms, CC[C@H]1[C@@H](O)[C@@H]2[C@H](CC[C@]3(C)[C@@H]([C@H](C)CCC(=O)O)CC[C@@H]23)[C@@]2(C)CC[C@@H](O)C[C@@H]12 [Obeticholic acid, reference compound] has a documented Cmax of 1010

----------
Readings of AUC for the listed compounds
experiment: Pharmacokinetics in mice administrated with single compound; type: in vivo, mice (C57BL/6J); details: mouse, plasma; male C57BL/6J mice, oral (intragastrical) 10 mg/kg
Unit µM·h implied. Number only.

compound	unit	AUC
CC[C@H]1[C@@H](O)[C@@H]2[C@H](CC[C@]3(C)[C@@H]([C@H](C)CCOc4ncc(C(=O)O)cc4Cl)CC[C@@H]23)[C@@]2(C)CC[C@@H](O)C[C@@H]12	µM·h	1.11

Query compound follows.
Sample CC[C@H]1[C@@H](O)[C@@H]2[C@H](CC[C@]3(C)[C@@H]([C@H](C)CCC(=O)O)CC[C@@H]23)[C@@]2(C)CC[C@@H](O)C[C@@H]12 [Obeticholic acid, reference compound] ; AUC observed: 0.993
